PROCEDURE SUMMARY: Cytotoxicity against human U937 cells assessed as reduction in cell viability after 24 hrs by MTT assay
Type: toxicity, cell-based, U-937
RECORDED CONDITIONS: human, U937 cells
QUANTITY KIND: IC50 at 24 h

IC50 at 24 h recorded for this molecule, CC[C@H](C)[C@@H]1NC(=O)[C@@H](CC(C)C)NC(=O)[C@H](C)NC(=O)[C@H]2CSSC[C@@H](NC1=O)C(=O)N2 , is 1.4 µM

IC50 at 24 h recorded for this molecule, CC(C)C[C@H]1NC(=O)[C@H](C(C)C)NC(=O)[C@H]2CSSC[C@@H](NC(=O)[C@H](Cc3ccccc3)NC1=O)C(=O)N2 , is < 0.1 µM

IC50 at 24 h recorded for this molecule, CC[C@H](C)[C@@H]1NC(=O)[C@@H](Cc2ccccc2)NC(=O)[C@H](C(C)C)NC(=O)[C@H]2CSSC[C@@H](NC1=O)C(=O)N2 , is 1.3 µM

IC50 at 24 h recorded for this molecule, CC[C@H](C)[C@@H]1NC(=O)[C@@H](CC(C)C)NC(=O)[C@H](C(C)C)NC(=O)[C@@H](CS)NC(=O)[C@@H](CS)NC1=O , is > 5 µM

IC50 at 24 h recorded for this molecule, CC[C@H](C)[C@@H]1NC(=O)[C@@H](CCCCN)NC(=O)[C@H](C(C)C)NC(=O)[C@H]2CSSC[C@@H](NC1=O)C(=O)N2 , is > 5 µM

IC50 at 24 h recorded for this molecule, CC(C)C[C@H]1NC(=O)[C@H](C(C)C)NC(=O)[C@H]2CSSC[C@@H](NC(=O)[C@H](C)NC1=O)C(=O)N2 , is 2.8 µM

IC50 at 24 h recorded for this molecule, CC[C@H](C)[C@@H]1NC(=O)[C@@H](CC(C)C)NC(=O)[C@H](C(C)C)NC(=O)[C@@H](CSC)NC(=O)[C@@H](CSC)NC1=O , is > 5 µM

IC50 at 24 h recorded for this molecule, N[C@@H]1CSSC[C@H](C(=O)O)NC1=O , is > 5 µM

IC50 at 24 h recorded for this molecule, CC(C)C[C@H]1NC(=O)[C@H](C(C)C)NC(=O)[C@H]2CSSC[C@@H](NC(=O)[C@H](CCCCNC(=O)OC(C)(C)C)NC1=O)C(=O)N2 , is < 0.1 µM

IC50 at 24 h recorded for this molecule, CC[C@H](C)[C@@H]1NC(=O)[C@@H](CCCCNC(=O)OC(C)(C)C)NC(=O)[C@H](C(C)C)NC(=O)[C@H]2CSSC[C@@H](NC1=O)C(=O)N2 , is 0.2 µM

IC50 at 24 h recorded for this molecule, CC(C)C[C@H]1NC(=O)[C@H](C(C)C)NC(=O)[C@H]2CSSC[C@@H](NC(=O)[C@H](CCCCN)NC1=O)C(=O)N2 , is > 5 µM

IC50 at 24 h recorded for this molecule, CC[C@H](C)[C@@H]1NC(=O)[C@@H](CC(C)C)NC(=O)[C@H](C(C)C)NC(=O)[C@@H](CSC(c2ccccc2)(c2ccccc2)c2ccccc2)NC(=O)[C@@H](CSC(c2ccccc2)(c2ccccc2)c2ccccc2)NC1=O , is > 5 µM

----------
Kindly state IC50 at 24 h for each of the entries shown.
PROCEDURE SUMMARY: Cytotoxicity against human U937 cells assessed as reduction in cell viability after 24 hrs by MTT assay
Type: toxicity, cell-based, U-937
RECORDED CONDITIONS: human, U937 cells

IC50 at 24 h recorded for this molecule, CC[C@H](C)[C@@H]1NC(=O)[C@@H](CC(C)C)NC(=O)[C@H](CCCCN)NC(=O)[C@H]2CSSC[C@@H](NC1=O)C(=O)N2 , is > 5000 nM

IC50 at 24 h recorded for this molecule, CC[C@H](C)[C@H](N)C(=O)N[C@@H]1CSSC[C@H](C(=O)N[C@H](C(=O)N[C@H](CC(C)C)C(=O)O)C(C)C)NC1=O , is > 5000 nM

IC50 at 24 h recorded for this molecule, CC[C@H](C)[C@@H]1NC(=O)[C@@H](CC(C)C)NC(=O)[C@H](C(C)C)NC(=O)[C@H]2CSSC[C@@H](NC1=O)C(=O)N2 (stereo in doubt; form 2) , is 760 nM

IC50 at 24 h recorded for this molecule, CC[C@H](C)[C@@H]1NC(=O)[C@@H](CC(C)C)NC(=O)[C@H](Cc2ccccc2)NC(=O)[C@H]2CSSC[C@@H](NC1=O)C(=O)N2 , is < 100 nM

IC50 at 24 h recorded for this molecule, CC[C@H](C)[C@@H]1NC(=O)[C@@H](C)NC(=O)[C@H](C(C)C)NC(=O)[C@H]2CSSC[C@@H](NC1=O)C(=O)N2 , is 2200 nM

IC50 at 24 h recorded for this molecule, CC[C@H](C)[C@@H]1NC(=O)[C@@H](CC(C)C)NC(=O)[C@H](CCCCNC(=O)OC(C)(C)C)NC(=O)[C@H]2CSSC[C@@H](NC1=O)C(=O)N2 , is < 100 nM

----------
PROCEDURE SUMMARY: Cytotoxicity against human U937 cells assessed as reduction in cell viability after 24 hrs by MTT assay
Assay type: toxicity, cell-based, U-937
RECORDED CONDITIONS: u-937
QUANTITY KIND: pIC50
Lab note — pIC50 values are minus log10 of concentrations in M.

pIC50 recorded for this molecule, CC[C@H](C)[C@@H]1NC(=O)[C@@H](CC(C)C)NC(=O)[C@H](C(C)C)NC(=O)[C@H]2CSSC[C@@H](NC1=O)C(=O)N2 (stereo in doubt; form 1) , is 6.10
